target: IRAK4 (Homo sapiens (Human)); assay: IRAK4 Inhibition Assay; format: biochemical; details: ATP 500 μM; IRAK4 0.6 nM; 60 min at room temperature; read-out: IRAK4 IC50
Value Kind: IC50

compound="CC(C)(O)[C@H](F)CNC(=O)c1cnc(Nc2ncc(C#N)cc2F)cc1NC1CCC(F)C1 (stereo partly shown) [Example 82]" value_kind=IC50 reported="3 nM"
compound="CC(C)(O)[C@H](F)CNC(=O)c1cnc(Nc2ccc(C#N)cn2)cc1NCC(F)(F)F [Example 3]" value_kind=IC50 reported="14.8 nM"
compound="CC(=O)N[C@H]1CC[C@H](NC(=O)c2cnc(Nc3ccc(C#N)cn3)cc2NC2CCOCC2F)CC1 (stereo partly shown) [Example 11]" value_kind=IC50 reported="11.1 nM"
compound="CC(C)(O)[C@H](F)CNC(=O)c1cnc(Nc2ncc(C#N)cn2)cc1N[C@H]1CCC[C@H]1F [Example 107]" value_kind=IC50 reported="9.1 nM"
compound="CC(=O)Nc1nc(Nc2cc(NC(C)C)c(C(=O)NC[C@@H](F)C(C)(C)O)cn2)ncc1C#N [Example 34]" value_kind=IC50 reported="6.1 nM"
compound="CC(C)Nc1cc(Nc2ncc(Cl)cc2F)ncc1C(=O)NC[C@@H](F)C(C)(C)O [Example 123]" value_kind=IC50 reported="3.5 nM"
compound="Cc1cc(C#N)cnc1Nc1cc(NC(C)C)c(C(=O)NC[C@@H](F)C(C)(C)O)cn1 [Example 85]" value_kind=IC50 reported="3.6 nM"
compound="CC(C)Nc1cc(Nc2ncc(O)cn2)ncc1C(=O)NC[C@@H](F)C(C)(C)O [Example 111]" value_kind=IC50 reported="11.8 nM"
compound="CC(C)(O)[C@H](F)CNC(=O)c1cnc(Nc2ncc(C#N)cn2)cc1NC1CCC(F)C1 (stereo partly shown) [Example 86]" value_kind=IC50 reported="4.8 nM"
compound="CC(C)(O)[C@H](F)CNC(=O)c1cnc(Nc2ncc(F)cc2F)cc1NC1CCCOC1 (stereo partly shown) [Example 109]" value_kind=IC50 reported="13.7 nM"
compound="CC(C)(O)[C@H](F)CNC(=O)c1cnc(Nc2ncc(C#N)cc2F)cc1NC1CCC(F)C1 (stereo partly shown) [Example 114]" value_kind=IC50 reported="2.3 nM"
compound="CC(C)Nc1cc(Nc2ccc(C#N)cn2)ncc1C(=O)N[C@H]1CC[C@H](C(=O)N[C@H]2C[C@H]2F)CC1 [Example 7]" value_kind=IC50 reported="10.4 nM"
compound="C[C@H](CO)Nc1cc(Nc2ncc(F)cc2F)ncc1C(=O)NC[C@@H](F)C(C)(C)O [Example 100]" value_kind=IC50 reported="17.4 nM"
compound="CC(C)(F)CNc1cc(Nc2ncc(C#N)cc2Cl)ncc1C(=O)NC[C@@H](F)C(C)(C)O [Example 46]" value_kind=IC50 reported="16.9 nM"
compound="COC(=O)N[C@H]1CC[C@H](NC(=O)c2cnc(Nc3ncc(C#N)cc3F)cc2NC(C)C)CC1 [Example 165]" value_kind=IC50 reported="11.3 nM"
compound="CNC(=O)[C@H]1CC[C@H](NC(=O)c2cnc(Nc3ncc(C#N)cc3F)cc2NC2CCOCC2)CC1 [Example 61]" value_kind=IC50 reported="8.4 nM"
compound="C[C@@H](CO)Nc1cc(Nc2ncc(C#N)cc2F)ncc1C(=O)NC[C@@H](F)C(C)(C)O [Example 91]" value_kind=IC50 reported="4.3 nM"
compound="CC(C)Nc1cc(Nc2ccnc(NC3CC3)n2)ncc1C(=O)NC[C@@H](F)C(C)(C)O [Example 24]" value_kind=IC50 reported="11 nM"
compound="CC(C)(O)[C@H](F)CNC(=O)c1cnc(Nc2ncc(C#N)cc2Cl)cc1NC12CC(C1)C2 [Example 90]" value_kind=IC50 reported="3.5 nM"
compound="CC(C)(O)[C@H](F)CNC(=O)c1cnc(Nc2ncc(C#N)cc2F)cc1NC1CCCOC1 (stereo partly shown) [Example 98]" value_kind=IC50 reported="7.5 nM"
compound="CC(C)Nc1cc(Nc2ncc(C#N)cc2F)ncc1C(=O)N[C@H]1CC[C@H](S(C)(=O)=O)CC1 [Example 33]" value_kind=IC50 reported="10 nM"
compound="CC(C)(O)[C@H](F)CNC(=O)c1cnc(Nc2ncc(C#N)cn2)cc1NC1CCC(F)C1 (stereo partly shown) [Example 56]" value_kind=IC50 reported="5 nM"
compound="CC(C)(O)[C@H](F)CNC(=O)c1cnc(Nc2ncc(C#N)cc2Cl)cc1NC1CCC(F)C1 (stereo partly shown) [Example 62]" value_kind=IC50 reported="1.7 nM"
compound="CC(C)(O)[C@H](F)CNC(=O)c1cnc(Nc2ncc(F)cc2F)cc1NC1CCOCC1F (stereo partly shown) [Example 108]" value_kind=IC50 reported="8.7 nM"
compound="CC(C)(O)[C@H](F)CNC(=O)c1cnc(Nc2nc(OC3CCNCC3)ncc2Cl)cc1NC1CC1 [Example 42]" value_kind=IC50 reported="14.7 nM"

---

biological target: IRAK4 (Homo sapiens (Human), UniProt Q9NWZ3); assay: IRAK4 Inhibition Assay; type: biochemical; conditions: ATP 500 μM; IRAK4 0.6 nM; 60 min at room temperature; read-out: IRAK4 IC50
Sequence (Q9NWZ3 whole entry, species assumed): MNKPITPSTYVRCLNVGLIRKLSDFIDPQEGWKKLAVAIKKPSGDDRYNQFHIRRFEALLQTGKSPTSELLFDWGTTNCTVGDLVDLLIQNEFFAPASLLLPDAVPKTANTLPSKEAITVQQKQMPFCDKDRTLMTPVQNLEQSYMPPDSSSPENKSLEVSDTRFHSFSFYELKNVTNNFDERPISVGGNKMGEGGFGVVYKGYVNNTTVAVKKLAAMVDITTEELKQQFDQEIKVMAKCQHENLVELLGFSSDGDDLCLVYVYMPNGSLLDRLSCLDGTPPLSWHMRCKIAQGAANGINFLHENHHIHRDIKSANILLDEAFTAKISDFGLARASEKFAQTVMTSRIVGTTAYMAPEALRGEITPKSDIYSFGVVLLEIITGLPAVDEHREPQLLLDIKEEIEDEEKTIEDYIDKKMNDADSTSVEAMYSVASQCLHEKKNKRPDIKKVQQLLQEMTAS
pIC50: −log10 of the molar value.
# Lookup of reported pIC50 keyed by entry
Value Kind: pIC50

compound="CC(C)Nc1cc(Nc2ccnc(N3CCC(F)C3)n2)ncc1C(=O)NC[C@@H](F)C(C)(C)O (some centres unmarked) [Example 26]" experimental_system="IRAK4 (Homo sapiens (Human), UniProt Q9NWZ3)" reported=8.32
compound="CC(=O)N[C@H]1CC[C@H](NC(=O)c2cnc(Nc3ncc(C#N)cc3F)cc2NC2CC2)CC1 [Example 83]" experimental_system="IRAK4 (Homo sapiens (Human), UniProt Q9NWZ3)" reported=8.14
compound="CC(C)(O)[C@H](F)CNC(=O)c1cnc(Nc2ncc(C#N)cc2F)cc1NC12CC3CC(CC(C3)C1)C2 [Example 119]" experimental_system="IRAK4 (Homo sapiens (Human), UniProt Q9NWZ3)" reported=7.98
compound="CC(C)Nc1cc(Nc2ccc(C#N)c(N3CCC(O)C3)n2)ncc1C(=O)NC[C@@H](F)C(C)(C)O (stereo in doubt) [Example 27]" experimental_system="IRAK4 (Homo sapiens (Human), UniProt Q9NWZ3)" reported=8.22
compound="CC(C)CNc1cc(Nc2ncc(C#N)cc2Cl)ncc1C(=O)NC[C@@H](F)C(C)(C)O [Example 155]" experimental_system="IRAK4 (Homo sapiens (Human), UniProt Q9NWZ3)" reported=8.37
compound="CC(C)(O)[C@H](F)CNC(=O)c1cnc(Nc2ncc(C#N)cc2Cl)cc1Nc1cccc(C(N)=O)c1 [Example 143]" experimental_system="IRAK4 (Homo sapiens (Human), UniProt Q9NWZ3)" reported=8.54
compound="CS(=O)(=O)[C@H]1CC[C@H](NC(=O)c2cnc(Nc3ncc(C#N)cc3F)cc2Nc2cccc(C(N)=O)c2)CC1 [Example 161]" experimental_system="IRAK4 (Homo sapiens (Human), UniProt Q9NWZ3)" reported=7.81
compound="CC(C)(O)[C@H](F)CNC(=O)c1cnc(Nc2ncc(C#N)cc2F)cc1NC1CCOCC1 [Example 49]" experimental_system="IRAK4 (Homo sapiens (Human), UniProt Q9NWZ3)" reported=8.51
compound="CC(C)(O)[C@H](F)CNC(=O)c1cnc(Nc2ncc(C#N)cc2Cl)cc1NC1CCCC1F (some centres unmarked) [Example 70]" experimental_system="IRAK4 (Homo sapiens (Human), UniProt Q9NWZ3)" reported=8.49
compound="CC(C)(O)[C@H](F)CNC(=O)c1cnc(Nc2ccc(Cl)cn2)cc1NC1CC1 [Example 81]" experimental_system="IRAK4 (Homo sapiens (Human), UniProt Q9NWZ3)" reported=8.15
compound="CC(C)(O)[C@H](F)CNC(=O)c1cnc(Nc2ncc(C#N)cc2Cl)cc1N[C@H]1CC[C@](C)(O)CC1 [Example 150]" experimental_system="IRAK4 (Homo sapiens (Human), UniProt Q9NWZ3)" reported=8.85
compound="CC(C)(O)[C@H](F)CNC(=O)c1cnc(Nc2ncc(C#N)cc2F)cc1Nc1cccc(O)c1 [Example 125]" experimental_system="IRAK4 (Homo sapiens (Human), UniProt Q9NWZ3)" reported=8.44
compound="C[C@@H](CO)Nc1cc(Nc2ncc(C#N)cc2Cl)ncc1C(=O)NC[C@@H](F)C(C)(C)O [Example 50]" experimental_system="IRAK4 (Homo sapiens (Human), UniProt Q9NWZ3)" reported=8.03
compound="CC(C)(O)[C@H](F)CNC(=O)c1cnc(Nc2ncc(C#N)cc2F)cc1Nc1cccc(C(N)=O)c1 [Example 135]" experimental_system="IRAK4 (Homo sapiens (Human), UniProt Q9NWZ3)" reported=8.22
compound="CC(C)(O)[C@H](F)CNC(=O)c1cnc(Nc2ncc(C#N)cc2F)cc1Nc1ccc(C(N)=O)cc1 [Example 142]" experimental_system="IRAK4 (Homo sapiens (Human), UniProt Q9NWZ3)" reported=8.92
compound="Cn1nnnc1-c1cccc(Nc2cc(Nc3ncc(C#N)cc3Cl)ncc2C(=O)NC[C@@H](F)C(C)(C)O)c1 [Example 146]" experimental_system="IRAK4 (Homo sapiens (Human), UniProt Q9NWZ3)" reported=8.07
compound="CC(C)(O)[C@H](F)CNC(=O)c1cnc(Nc2ncc(C#N)cn2)cc1NC1CCC(F)C1 (some centres unmarked) [Example 87]" experimental_system="IRAK4 (Homo sapiens (Human), UniProt Q9NWZ3)" reported=8.46
